Reference for the values: the supplement of paper PMC11208160

Reported recombinant barcode read abundance (log10) values for the following sequences.
assay: recombinant barcode read abundance after kanamycin selection (control-corrected) (log10(CPM+1)); higher = more efficient recombination; sequences stand for … in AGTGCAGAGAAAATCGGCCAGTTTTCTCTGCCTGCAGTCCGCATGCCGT…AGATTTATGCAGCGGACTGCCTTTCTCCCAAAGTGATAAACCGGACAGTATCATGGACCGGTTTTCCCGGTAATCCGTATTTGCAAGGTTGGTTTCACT; site = the 11-nt target
Response field accepts a number only; no unit should be typed.

residue-sequence: TACAAGCCTTGGGTTCTAACCTGTTGCGG (site TACAAGTCTCT)
recorded-value: 0.051
//
residue-sequence: GAGGGCCCTTGGGTTCTAACCTGTTGCGG (site GAGGGCCCTCT)
recorded-value: 2.8
//
residue-sequence: AACAGACCTTGGGTTCTAACCTGTTGCCT (site GACAGACCTAG)
recorded-value: 0.291

Asked: Which measured recombinant barcode read abundance (log10) value corresponds to ATGATTACTTGGGTTCTAACCTGTTGCCT (site ATGATTACTAG) ?
Given back: 0.385

Asked: Input CTACAAGCTTGGGTTCTAACCTGTTGCCT (site CTACAAGCTAG)
Given back: 1.34

Asked: Input CATAGCTCTTGGGTTCTAACCTGTTGCCT (site AATAGCTCTAG)
Given back: 0.527

Asked: Input GGACCTCCTTGGGTTCTAACCTGTTGCAT (site GGACCTCCTAG)
Given back: 0.0883

Asked: Input TGTCAACCTTGGGTTCTAACCTGTTGCCT (site TGTCAAGCTAG)
Given back: 0.12

Asked: Input TACGGGGCTTGGGTTCTAACCTGTTGCCT (site TACGTGGCTAG)
Given back: 0.414

---

experiment: recombinant barcode read abundance after kanamycin selection (control-corrected) (log10(CPM+1)); higher = more efficient recombination; sequences stand for … in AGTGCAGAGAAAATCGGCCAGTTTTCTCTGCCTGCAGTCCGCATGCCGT…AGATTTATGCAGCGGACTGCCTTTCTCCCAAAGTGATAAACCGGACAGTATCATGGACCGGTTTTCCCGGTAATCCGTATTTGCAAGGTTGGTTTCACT; site = the 11-nt target
Reported recombinant barcode read abundance (log10) values for the following sequences.
Response field accepts a number only; no unit should be typed.

Below, each entry is followed by its recorded recombinant barcode read abundance (log10) result.
residue-sequence: TCGACCACTTGGGTTCTAACCTGTTGCCT (site TCGACCACTAG)
recorded-value: 0.115

residue-sequence: AGCGAGGCTTGGGTTCTAACCTGTTGCCT (site AGCGAGGCTAG)
recorded-value: 0.188

residue-sequence: CACGATCCTTGGGTTCTAACCTGTTGCTT (site CACGATCCTAA)
recorded-value: 1.52

residue-sequence: AGTGAATCTTGGGTTCTAACCTGTTGCCT (site AGCGAATCTAG)
recorded-value: 0.249

residue-sequence: AATTTAGCTTGGGTTCTAACCTGTTGCCT (site AATTTAGCTAG)
recorded-value: 0.244

Pending sequence:
Asked: Which measured recombinant barcode read abundance (log10) value corresponds to ACTTGAGCTTGGGTTCTAACCTGTTGCAT (site ACTTGAGCTAT) ?
Given back: 1.36

---

assay: recombinant UMI read abundance after kanamycin selection (control-corrected) (log10(CPM+1)); higher = more efficient recombination; extreme values may be limits of the assay; sequences stand for … in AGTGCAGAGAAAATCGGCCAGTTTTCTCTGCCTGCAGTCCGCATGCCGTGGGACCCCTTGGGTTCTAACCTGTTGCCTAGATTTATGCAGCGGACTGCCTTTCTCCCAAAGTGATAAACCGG…AGGTTGGTTTCACT; site = the 11-nt donor
Threshold rule: recombinant UMI read abundance (log10) greater than or equal to 0.08 is satisfied; below that, not satisfied.

residue-sequence: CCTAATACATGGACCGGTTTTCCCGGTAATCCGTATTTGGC (site CCGAATACTGC)
label: not satisfied
--
residue-sequence: GCGAAACCATGGACCGGTTTTCCCGGTAATCCGTATTTGGG (site GCGAAGCCTCC)
label: not satisfied
--
residue-sequence: TCTTGCCCATGGACCGGTTTTCCCGGTAATCCGTATTTGAT (site CCTTGCCCTAT)
label: not satisfied
--
residue-sequence: ACAGTAACATGGACCGGTTTTCCCGGTAATCCGTATTTGCA (site ACAGTAGCTTG)
label: satisfied

Asked: Tell me whether recombinant UMI read abundance (log10) is at least 0.08 here: TGGCAACCATGGACCGGTTTTCCCGGTAATCCGTATTTGCT (site TGGCAACCTAG)
Given back: not satisfied
